# assay: Determination of logD (1-octanol / phosphate buffer pH 7.4)
# Type: physicochemical
# condition_label: 1-octanol/phosphate buffer, pH 7.4, pH 7.4, 1-octanol/phosphate buffer; read-out: Log D, pH 7.4
value_kind: logD
Answers are plain numbers.

compound_string: N#CC[C@H]1CN(c2nc(OC[C@@]34CCCN3C[C@H](F)C4)nc3c2CCN(c2cccc4cccc(Cl)c24)C3)CCN1C(=O)/C=C/c1nc(C(F)F)no1
value_kind: logD
measurement: 4.78
--
compound_string: N#CC[C@H]1CN(c2nc(OC[C@@]34CCCN3C[C@H](F)C4)nc3c(F)c(-c4cccc5cccc(Cl)c45)ncc23)CCN1C(=O)/C=C/CN1CCOCC1
value_kind: logD
measurement: 2.71
--
compound_string: CN(C)C/C=C/C(=O)N1CCN(c2nc(OC[C@@]34CCCN3C[C@H](F)C4)nc3c(F)c(-c4cccc(Cl)c4C(F)(F)F)ncc23)C[C@@H]1CC#N
value_kind: logD
measurement: 2.35
--
compound_string: N#CC[C@H]1CN(c2nc(OC[C@@]34CCCN3C[C@H](F)C4)nc3c(F)c(-c4cccc5cccc(Cl)c45)ncc23)CCN1C(=O)/C=C/c1nc(C2CC2)ncc1F
value_kind: logD
measurement: 4.52

// moving on: another record for logD
The value of logD measured for the compound Cc1c(F)ccc2cccc(-c3ncc4c(N5CCN(C(=O)/C=C/CN6CC7CC(C6)O7)[C@@H](CC#N)C5)nc(OC[C@@]56CCCN5C[C@H](F)C6)nc4c3F)c12 turned out to be 3.02

----------
# measurement_target: KRAS G12C (GMPPNP-loaded) and cRAF (Ras-binding domain) interaction (Homo sapiens (Human), UniProt P01116, C118S/C51S/C80L/G12C)
# Sequence (P01116 other isoform, or with tags, fused parts or gaps G12C/C51S/C80L/C118S): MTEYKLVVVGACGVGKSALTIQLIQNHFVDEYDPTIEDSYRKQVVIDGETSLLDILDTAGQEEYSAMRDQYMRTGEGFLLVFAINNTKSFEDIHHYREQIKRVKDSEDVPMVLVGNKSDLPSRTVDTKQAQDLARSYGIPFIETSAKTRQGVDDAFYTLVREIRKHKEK
# assay: Inhibition of KRAS G12C and cRAF binding (AlphaScreen)
# condition_label: KRAS G12C loaded with GMPPNP, cRaf RBD, 2 hours preincubation; read-out: Raf-1 RBD K-Ras IC50
value_kind: IC50

compound_string: C[C@@H]1CN(C/C=C/C(=O)N2CCN(c3nc(OCC45CCCN4CCC5)nc4c3CCN(c3cccc5cccc(Cl)c35)C4)C[C@@H]2CC#N)C[C@@H](C)O1
IC50: 10 to 100 nM
//
compound_string: N#CC[C@H]1CN(c2nc(OC[C@@]34CCCN3C[C@H](F)C4)nc3c(F)c(-c4cccc(Cl)c4C4CC4)ncc23)CCN1C(=O)/C=C/CN1CCCOCC1
IC50: < 10 nM
//
compound_string: N#CC[C@H]1CN(c2nc(OC[C@@]34CCCN3C[C@H](F)C4)nc3c(F)c(-c4cccc5cccc(F)c45)ncc23)CCN1C(=O)/C=C/CN1C[C@H]2C[C@@H]1CO2
IC50: < 10 nM
//
compound_string: CC(C)c1noc(/C=C/C(=O)N2CCN(c3nc(OC[C@]45CCCN4C[C@H](F)C5)nc4c3CCN(c3cccc5ccc(F)c(Cl)c35)C4)C[C@@H]2CC#N)n1
IC50: 10 to 100 nM

Turning to the following compound.
Consider Cc1nsc(/C=C/C(=O)N2CCN(c3nc(OC[C@@]45CCCN4C[C@H](F)C5)nc4c3CCN(c3cccc5cccc(Cl)c35)C4)C[C@@H]2CC#N)n1 . Its measured IC50 is < 10 nM

----------
Can you tell me pIC50 for the items I'm about to list?
# measurement_target: KRAS G12C (GMPPNP-loaded) and PI3Ka (Ras-binding domain) interaction (Homo sapiens (Human), UniProt P01116, C118S/C51S/C80L/G12C)
# assay: Inhibition of KRAS G12C and PI3Ka binding (AlphaScreen)
# condition_label: KRAS G12C loaded with GMPPNP, PI3Ka RBD, 2 hours preincubation; read-out: PI3K RBD K-Ras IC50
pIC50: −log10 of the molar value.

Consider the reported pIC50 for these molecules:
compound_string: CC(F)(F)c1noc(/C=C/C(=O)N2CCN(c3nc(OCC45CCCN4CCC5)nc4c(F)c(-c5cccc6cccc(Cl)c56)ncc34)C[C@@H]2CC#N)n1
pIC50: 7.00 to 8.00

compound_string: N#CC[C@H]1CN(c2nc(OCC34CCCN3CCC4)nc3c2CCN(c2cccc4cccc(Cl)c24)C3)CCN1C(=O)/C=C/CN1CCOCC1
pIC50: 7.00 to 8.00

molecule N#CC[C@H]1CN(c2nc(OC[C@@]34CCCN3C[C@H](F)C4)nc3c(F)c(-c4cccc5ccc(F)c(Cl)c45)ncc23)CCN1C(=O)/C=C/CN1CC2CC(C1)O2 , pIC50 observed: > 8.00

----------
# measurement_target: KRAS G12C (GMPPNP-loaded) and cRAF (Ras-binding domain) interaction (Homo sapiens (Human), UniProt P01116, C118S/C51S/C80L/G12C)
# assay: Inhibition of KRAS G12C and cRAF binding (AlphaScreen)
# condition_label: KRAS G12C loaded with GMPPNP, cRaf RBD, 2 hours preincubation; read-out: Raf-1 RBD K-Ras IC50
value_kind: IC50

compound: N#CC[C@H]1CN(c2nc(OCC34CCCN3CCC4)nc3c2CCN(c2cccc4cccc(Cl)c24)C3)CCN1C(=O)/C=C/c1nc([C@H]2C[C@@H]2F)no1 [Compound 36]
IC50: 10 to 100 nM

I have 8 compounds here; please give me IC50 for each one.
1. Cc1nccc(/C=C/C(=O)N2CCN(c3nc(OC[C@@]45CCCN4C[C@H](F)C5)nc4c(F)c(-c5nc(N)cc6cccc(Cl)c56)ncc34)C[C@@H]2CC#N)n1 [Compound 148]
2. Cc1nccc(/C=C/C(=O)N2CCN(c3nc(OC[C@@]45CCCN4C[C@H](F)C5)nc4c(F)c(-c5nc(N)cc6cccc(F)c56)ncc34)C[C@@H]2CC#N)n1 [Compound 146]
3. N#CC[C@H]1CN(c2nc(OC[C@@]34CCCN3C[C@H](F)C4)nc3c(F)c(-c4cccc5cccc(Cl)c45)ncc23)CCN1C(=O)/C=C/CN1CC[C@@H](OC(F)F)C1 [Compound 304]
4. N#CC[C@H]1CN(c2nc(OC[C@@]34CCCN3C[C@H](F)C4)nc3c(F)c(-c4ccc(F)c(F)c4C4CC4)ncc23)CCN1C(=O)/C=C/CN1[C@@H]2CC[C@H]1COC2 [Compound 272]
5. CCc1noc(/C=C/C(=O)N2CCN(c3nc(OCC45CCCN4CCC5)nc4c(F)c(-c5cccc6cccc(Cl)c56)ncc34)C[C@@H]2CC#N)n1 [Compound 26]
6. N#CC[C@H]1CN(c2nc(OC[C@@]34CCCN3C[C@H](F)C4)nc3c(F)c(-c4cccc(Cl)c4C4CC4)ncc23)CCN1C(=O)/C=C/CN1CC2CCC1CO2 (stereo partly drawn) [Compound 279]
7. N#CC[C@H]1CN(c2nc(OC[C@@]34CCCN3C[C@H](F)C4)nc3c(F)c(-c4cccc5cccc(Cl)c45)ncc23)CCN1C(=O)/C=C/c1nc([C@H]2C[C@@H]2F)no1 [Compound 15]
8. C#Cc1c(F)ccc2cccc(-c3ncc4c(N5CCN(C(=O)/C=C/c6cc(C)nc(C)n6)[C@@H](CC#N)C5)nc(OC[C@@]56CCCN5C[C@H](F)C6)nc4c3F)c12 [Compound 101]

1: < 10 nM; 2: < 10 nM; 3: < 10 nM; 4: 10 to 100 nM; 5: 100 to 500 nM; 6: < 10 nM; 7: 100 to 500 nM; 8: < 10 nM

// for each compound in input: emit IC50
1. Cn1cnc(/C=C/C(=O)N2CCN(c3nc(OC[C@@]45CCCN4C[C@H](F)C5)nc4c(F)c(-c5cccc6cccc(Cl)c56)ncc34)C[C@@H]2CC#N)c1 [Compound 42]
2. N#CC[C@H]1CN(c2nc(OC[C@@]34CCCN3C[C@H](O)C4)nc3c(F)c(-c4cccc5cccc(Cl)c45)ncc23)CCN1C(=O)/C=C/CN1CCOCC1 [Compound 319]
3. Cc1cc(/C=C/C(=O)N2CCN(c3nc(OC[C@@]45CCCN4C[C@H](F)C5)nc4c(F)c(-c5cccc6ccc(F)c(C)c56)ncc34)C[C@@H]2CC#N)nc(C)n1 [Compound 105]
4. N#CC[C@H]1CN(c2nc(OC[C@@]34CCCN3C[C@H](F)C4)nc3c(F)c(-c4cccc(Cl)c4C4CC4)ncc23)CCN1C(=O)/C=C/CN1CCOCC1 [Compound 243]
5. N#CC[C@H]1CN(c2nc(OC[C@@]34CCCN3C[C@H](F)C4)nc3c(F)c(-c4cccc5ccc(F)c(F)c45)ncc23)CCN1C(=O)/C=C/CN1CC2CCC(C1)O2 [Compound 249]

> 500 nM
< 10 nM
< 10 nM
< 10 nM
< 10 nM

Record IC50 for all entries; do not skip any.
1. CC(C)(O)c1noc(/C=C/C(=O)N2CCN(c3nc(OCC45CCCN4CCC5)nc4c3CCN(c3cccc5cccc(Cl)c35)C4)C[C@@H]2CC#N)n1 [Example 16]
2. N#CC[C@H]1CN(c2nc(OC[C@@]34CCCN3C[C@H](F)C4)nc3c(F)c(-c4cccc5ccc(F)c(F)c45)ncc23)CCN1C(=O)/C=C/CN1CCn2ncnc2C1 [Compound 266]
3. N#CC[C@H]1CN(c2nc(OCC34CCCN3CCC4)nc3c2CCN(c2cccc4cccc(Cl)c24)C3)CCN1C(=O)/C=C/CN1CCN(C2COC2)CC1 [Compound 317]
4. CCc1c(F)ccc2cccc(-c3ncc4c(N5CCN(C(=O)/C=C/c6cc(C)nc(C)n6)[C@@H](CC#N)C5)nc(OC[C@@]56CCCN5C[C@H](F)C6)nc4c3F)c12 [Compound 98]
5. N#CC[C@H]1CN(c2nc(OC[C@@]34CCCN3C[C@H](F)C4)nc3c(F)c(-c4cccc5ccc(F)c(Cl)c45)ncc23)CCN1C(=O)/C=C/CN1CCOC2CC21 (stereo partly drawn) [Compound 160]
6. N#CC[C@H]1CN(c2nc(OC[C@@]34CCCN3C[C@H](F)C4)nc3c(F)c(-c4cccc5cccc(Cl)c45)ncc23)CCN1C(=O)/C=C/CN1CC[C@H](OC(F)F)C1 [Compound 303]

10 to 100 nM
100 to 500 nM
< 10 nM
< 10 nM
< 10 nM
< 10 nM

Please fill in: IC50 reported for N#CC[C@H]1CN(c2nc(OC[C@@]34CCCN3C[C@H](F)C4)nc3c(F)c(-c4cccc5ccc(F)c(Cl)c45)ncc23)CCN1C(=O)/C=C/CN1CCSCC1 [Compound 231] = < 10 nM

The reported measurements were obtained from patent US20250129103A1.
